Tested on: Mab ATCC19977 strain
Type: cell-based, Mycobacterium abscessus
Procedure: Briefly, serial dilutions of the AMPs were prepared with potassium phosphate buffer (PPB) from the concentration range of 3.125 to 400 μg/ml and then 50 μl of each dilution were added to each 96-well plate. Colonies of the isolate were suspended and then further diluted in Mueller-Hinton broth to obtain a final concentration of 1×10^3 CFU/ml (optimized according to the available AMP stock concentration). […] The MIC values were read and recorded. […]
Where a SMILES comes first, the peptide text is derived from it.
Measured MIC values, listed per entry.

>  <MOLECULE>
CC(C)C[C@H](NC(=O)[C@H](Cc1ccccc1)NC(=O)[C@H](CO)NC(=O)[C@@H]1CCCN1C(=O)[C@@H](N)Cc1ccccc1)C(=O)N[C@H](C(=O)NCC(=O)N[C@@H](CCCNC(=N)N)C(=O)O)C(C)C [Pug-4] (H-FPSFLVGR-OH)

>  <MIC values>
>400 µg/mL

$$$$
>  <MOLECULE>
CC(C)[C@H](NC(=O)[C@@H](NC(=O)[C@H](CO)NC(=O)CNC(=O)[C@@H](NC(=O)[C@H](C)NC(=O)CN)C(C)C)C(C)C)C(=O)O [Pug-2] (H-GAVGSVV-OH)

>  <MIC values>
>400 µg/mL

$$$$

Proceed to the following item.
Query: Can you share its MIC values? I mean this molecule: CC(C)C[C@H](NC(=O)[C@H](CCCCN)NC(=O)[C@H](CC(C)C)NC(=O)[C@@H](N)CC(C)C)C(=O)N[C@@H](Cc1ccccc1)C(=O)N[C@@H](Cc1ccccc1)C(=O)N1CCC[C@H]1C(=O)N[C@@H](Cc1ccccc1)C(=O)N[C@@H](CC(C)C)C(=O)N[C@@H](CCC(=O)O)C(=O)N[C@H](C(=O)NCC(=O)N[C@@H](CCC(=O)O)C(=O)O)[C@@H](C)O [Pug-1] (H-LLKLFFPFLETGE-OH)
Reply: >400 µg/mL
